Origin of the recorded values: ChEMBL document CHEMBL4196020

Overview of recorded CC50 at 72 h for various compounds
Protocol summary: Cytotoxicity against Balb/c mouse peritoneal macrophages assessed as reduction in cell viability after 72 hrs by resazurin assay
Type: cell-based, Peritoneal macrophage

Compound	Observation type	Value reported
CC1(Cc2ccccc2Br)CC(S(=O)(=O)c2ccc(F)cc2)=C(c2ccc(/C(N)=N/O)cc2)O1 (stereo not given)	CC50 at 72 h	109 µM
Cc1cccc(CC2(C)CC(S(=O)(=O)c3ccc(F)cc3)=C(c3ccc(/C(N)=N/O)cc3)O2)c1 (stereo not given)	CC50 at 72 h	112 µM
CC1(Cc2ccccc2)CC(S(=O)(=O)c2ccc(F)cc2)=C(c2cccc(/C(N)=N/O)c2)O1 (stereo not given)	CC50 at 72 h	> 200 µM
CC1(Cc2ccc(/C(N)=N/O)cc2)CC(S(=O)(=O)c2ccc(F)cc2)=C(c2ccc(/C(N)=N/O)cc2)O1 (stereo not given)	CC50 at 72 h	42.2 µM
Cc1ccc(CC2(C)CC(S(=O)(=O)c3ccc(F)cc3)=C(c3ccc(/C(N)=N/O)cc3)O2)cc1 (stereo not given)	CC50 at 72 h	54.4 µM
CC1(Cc2ccc(-c3ccccc3)c(F)c2)CC(S(=O)(=O)c2ccc(F)cc2)=C(c2ccc(/C(N)=N/O)cc2)O1 (stereo not given)	CC50 at 72 h	24.5 µM

Kindly indicate its recorded CC50 at 72 h. Item: CC1(Cc2ccccc2)CC(S(=O)(=O)c2ccc(F)cc2)=C(c2ccc(/C(N)=N/O)cc2)O1 (stereo not given) 102 µM

For the compound CC1(Cc2cccc([N+](=O)[O-])c2)CC(S(=O)(=O)c2ccc(F)cc2)=C(c2ccc(/C(N)=N/O)cc2)O1 (stereo not given) , give its measured CC50 at 72 h value. 86.6 µM

Given CC1(Cc2ccc(-c3ccccc3)cc2)CC(S(=O)(=O)c2ccc(F)cc2)=C(c2ccc(/C(N)=N/O)cc2)O1 (stereo not given) , respond with its CC50 at 72 h. 33.9 µM

---

In this section, each of the compounds is paired with its reported CC50 at 72 h.
Protocol summary: Cytotoxicity against Balb/c mouse peritoneal macrophages assessed as reduction in cell viability after 72 hrs by resazurin assay
Format: cell-based, Peritoneal macrophage

Consider the reported CC50 at 72 h for these compounds:
Compound	Observation type	Value reported
CC1(Cc2ccc(CO)cc2)CC(S(=O)(=O)c2ccc(F)cc2)=C(c2ccc(/C(N)=N/O)cc2)O1 (stereo not drawn)	CC50 at 72 h	> 100 µM
COc1ccc(CC2(C)CC(S(=O)(=O)c3ccc(F)cc3)=C(c3ccc(/C(N)=N/O)cc3)O2)cc1 (stereo not drawn)	CC50 at 72 h	> 100 µM

Next up:
Give CC50 at 72 h for CC1(Cc2cccc(CO)c2)CC(S(=O)(=O)c2ccc(F)cc2)=C(c2ccc(/C(N)=N/O)cc2)O1 (stereo not drawn) > 100 µM

---

Protocol summary: Cytotoxicity against Balb/c mouse peritoneal macrophages assessed as reduction in cell viability after 72 hrs by resazurin assay
Format: cell-based, Peritoneal macrophage
Observation type: CC50 at 72 h (µM)
Entry rule: numbers only, all in µM.

As a guide, the following entries are already answered.
Compound	CC50 at 72 h, µM
CC1(Cc2cc(C(F)(F)F)cc(C(F)(F)F)c2)CC(S(=O)(=O)c2ccc(F)cc2)=C(c2ccc(/C(N)=N/O)cc2)O1 (stereo unspecified)	43.1
Cc1ccccc1CC1(C)CC(S(=O)(=O)c2ccc(F)cc2)=C(c2ccc(/C(N)=N/O)cc2)O1 (stereo unspecified)	77.6
N/C(=N\O)c1ccc(C2=C(S(=O)(=O)c3ccc(F)cc3)CC3(CCCCC3)O2)cc1	92.9

Read off the recorded CC50 at 72 h for CC1(Cc2ccc(C(F)(F)F)cc2)CC(S(=O)(=O)c2ccc(F)cc2)=C(c2ccc(/C(N)=N/O)cc2)O1 (stereo unspecified) 103

Identify measured CC50 at 72 h corresponding to CC1(Cc2cccc(C(F)(F)F)c2)CC(S(=O)(=O)c2ccc(F)cc2)=C(c2ccc(/C(N)=N/O)cc2)O1 (stereo unspecified) 49.8

Recall and state the measured CC50 at 72 h for COc1cc(CC2(C)CC(S(=O)(=O)c3ccc(F)cc3)=C(c3ccc(/C(N)=N/O)cc3)O2)cc(OC)c1OC (stereo unspecified) . 92.3
